molecular target: recombinant human TNFα (human, UniProt P01375 77-233); experiment: cell-based or functional assay
Sequence (P01375 77-233 limits assumed): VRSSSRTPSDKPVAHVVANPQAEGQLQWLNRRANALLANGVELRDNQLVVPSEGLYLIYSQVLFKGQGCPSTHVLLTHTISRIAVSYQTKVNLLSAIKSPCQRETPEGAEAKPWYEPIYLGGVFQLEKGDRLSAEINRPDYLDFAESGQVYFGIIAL
MEASURE: Relative potency: EC50X/EC50TB-A, KYM-1 cells (ratio EC50X/EC50TB-A)
Answer format: numeric, ratio EC50X/EC50TB-A implied, no suffix.

Please review the entries below; each comes with its answer.
BINDER: TB-A Linker_G2R H_F68L (scFv) scFv: DIVMTQSPSSLSASVGDRVTLTCTASQSVSNDVVWYQQRPGKAPKLLIYSAFNRYTGVPSRFSGRGYGTDFTLTISSLQPEDVAVYYCQQDYNSPRTFGQGTKLEVKRGRGGSGGGGSGGGGSGGGGSQVQLVQSGAEVKKPGASVKVSCTASGYTFTHYGMNWVRQAPGKGLEWMGWINTYTGEPTYADKFKDRLTFSLETSASTVYMELTSLTSDDTAVYYCARERGDAMDYWGQGTLVTVSS
MEASURED: 1.3
--
BINDER: TB-A H_M48L/F68I (scFv) scFv: DIVMTQSPSSLSASVGDRVTLTCTASQSVSNDVVWYQQRPGKAPKLLIYSAFNRYTGVPSRFSGRGYGTDFTLTISSLQPEDVAVYYCQQDYNSPRTFGQGTKLEVKRGGGGSGGGGSGGGGSGGGGSQVQLVQSGAEVKKPGASVKVSCTASGYTFTHYGMNWVRQAPGKGLEWLGWINTYTGEPTYADKFKDRITFSLETSASTVYMELTSLTSDDTAVYYCARERGDAMDYWGQGTLVTVSS
MEASURED: 1.6
--
BINDER: TB-A H_K43R/F68I (scFv) scFv: DIVMTQSPSSLSASVGDRVTLTCTASQSVSNDVVWYQQRPGKAPKLLIYSAFNRYTGVPSRFSGRGYGTDFTLTISSLQPEDVAVYYCQQDYNSPRTFGQGTKLEVKRGGGGSGGGGSGGGGSGGGGSQVQLVQSGAEVKKPGASVKVSCTASGYTFTHYGMNWVRQAPGRGLEWMGWINTYTGEPTYADKFKDRITFSLETSASTVYMELTSLTSDDTAVYYCARERGDAMDYWGQGTLVTVSS
MEASURED: 1.5

INPUT: Which Relative potency: EC50X/EC50TB-A, KYM-1 cells is reported for this binder? TB-A H_F68L (scFv) scFv: DIVMTQSPSSLSASVGDRVTLTCTASQSVSNDVVWYQQRPGKAPKLLIYSAFNRYTGVPSRFSGRGYGTDFTLTISSLQPEDVAVYYCQQDYNSPRTFGQGTKLEVKRGGGGSGGGGSGGGGSGGGGSQVQLVQSGAEVKKPGASVKVSCTASGYTFTHYGMNWVRQAPGKGLEWMGWINTYTGEPTYADKFKDRLTFSLETSASTVYMELTSLTSDDTAVYYCARERGDAMDYWGQGTLVTVSS
OUTPUT: 1.5
